# Test system: HCT-15 colon
# EXPERIMENT: NCI tumour cell line growth inhibition, 48 h; in the data active = GI50 below about 0.43 µM; inactive = the rest
One label from this list, please: label 1 = active, label 0 = inactive

| SMILES RECORD | CLASS ASSIGNMENT |
| --- | --- |
| Nc1ccc2c(c1)C(=O)C(=O)c1c-2nc2ccccn12 | label 0 |

Problem: What did this assay record as the result for `CCN(CC)CCOCC[C@H]1CC[C@H]2[C@@H]3[C@H](C)Cc4cc(OS(N)(=O)=O)ccc4[C@H]3CC[C@]12C` ?
Result: label 0

Problem: How about this molecule: `COc1ccc2[nH]c(=O)c3c4ccccc4cn3c2c1`
Result: label 1

Problem: How about this molecule: `COc1ccc2oc(=O)cc(C(c3ccc[nH]3)c3ccc[nH]3)c2c1`
Result: label 1

Problem: How about this molecule: `O=C(NC1CCN(Cc2ccccc2)CC1)c1cc(-c2ccncc2)nc2ccc(Cl)cc12`
Result: label 0

Problem: How about this molecule: `CCNC(=O)[C@@H]1CCCN2C(=O)CC[C@H](NC(=O)[C@H](Cc3ccc(OP(=O)(O)O)cc3)NC(C)=O)C(=O)N12`
Result: label 0
